# Measurement Target: KDM4B (Homo sapiens)
# Sequence (O94953 1-366): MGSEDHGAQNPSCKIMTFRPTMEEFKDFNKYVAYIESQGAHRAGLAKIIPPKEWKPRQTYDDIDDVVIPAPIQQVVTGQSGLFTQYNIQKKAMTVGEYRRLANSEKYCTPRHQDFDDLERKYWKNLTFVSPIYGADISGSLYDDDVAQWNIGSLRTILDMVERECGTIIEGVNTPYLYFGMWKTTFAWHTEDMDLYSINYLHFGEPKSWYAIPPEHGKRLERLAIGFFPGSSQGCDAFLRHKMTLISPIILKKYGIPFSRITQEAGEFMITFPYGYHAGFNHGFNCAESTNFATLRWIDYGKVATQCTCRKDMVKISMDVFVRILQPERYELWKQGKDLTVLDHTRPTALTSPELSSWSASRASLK
Endpoint: Kd (nM)
Field format: number, assumed nM, no unit text.

The compound CN(c1ccccc1)c1ccc2c(c1)CCC[C@H]2CNc1cnccc1C(=O)O showed Kd equal to 105

Values were extracted from paper PMC9548378.
